Listed here: molecules with reported IC50 for E. coli TP (Escherichia coli, UniProt P07650).
Give the number; µM is assumed, so skip it.

Below, 4 molecules whose answers are already recorded.
>>> readout_value("COc1ccc2cc3c(=O)[nH]c(=O)[nH]c3nc2c1")
28
>>> readout_value("COc1ccc2c(C)c3c(=O)[nH]c(=O)[nH]c3nc2c1")
26
>>> readout_value("O=C(NCc1cc(=O)[nH]c(=O)[nH]1)c1cc2c(=O)[nH]c(=O)[nH]c2nc1C(=O)NCc1cc(=O)[nH]c(=O)[nH]1")
87
>>> readout_value("O=c1[nH]c(=O)c2cc3cc(Cl)c(Cl)cc3nc2[nH]1")
42

Requested field: IC50. Item: O=C1c2cc3c(=O)[nH]c(=O)[nH]c3nc2C(=O)N1Cc1ccccc1 [Compound 28a] 62

----------
Measure Name: melting point (°C)
Give the number; °C is assumed, so skip it.

>>> readout_value("O=C1c2cc3cc4c(cc3nc2C(=O)N1CCCCn1cc(Br)c(=O)[nH]c1=O)OCO4 [Compound 16a]")
276

Would you kindly look at the next entry?
Requested field: melting point. Item: Cc1cn(CCCCN2C(=O)c3cc4cc5c(cc4nc3C2=O)OCO5)c(=O)[nH]c1=O [Compound 13a] 302

----------
- Experimental Target: E. coli TP (Escherichia coli)
- Construct: purchased Sigma Aldrich T2807-1KU
- Experiment Notes: In vitro E. coli thymidine phosphorylase inhibition, spectrophotometric assay at 290 nm
- Assay type: biochemical
- Measurement Context: compound at 50 µM; 2.5% DMSO; average of three measurements
In this section, each of the molecules is paired with its reported inhibition at 50 µM.
Give the number; % is assumed, so skip it.

Below, 4 molecules whose answers are already recorded.
>>> readout_value("O=C1c2cc3c(=O)[nH]c(=O)[nH]c3nc2C(=O)N1Cc1cccnc1 [Compound 28f]")
0
>>> readout_value("O=c1[nH]c(=O)c2cc3ccc(OCc4ccccc4)cc3nc2[nH]1")
0
>>> readout_value("CN(C)CCCN1C(=O)c2cc3c(=O)[nH]c(=O)[nH]c3nc2C1=O [Compound 28h]")
0
>>> readout_value("O=C1c2cc3cc4c(cc3nc2C(=O)N1Cc1ccccc1)OCO4")
20

Would you kindly look at the next entry?
Return inhibition at 50 µM measured with E. coli TP (Escherichia coli) given this molecule: O=C1c2cc3cc4c(cc3nc2C(=O)N1Cc1[nH]c(=O)[nH]c(=O)c1Cl)OCO4 [Compound 23a] 0

----------
- Experimental Target: E. coli TP (Escherichia coli, UniProt P07650)
- Construct: purchased Sigma Aldrich T2807-1KU
- Sequence (P07650 whole entry): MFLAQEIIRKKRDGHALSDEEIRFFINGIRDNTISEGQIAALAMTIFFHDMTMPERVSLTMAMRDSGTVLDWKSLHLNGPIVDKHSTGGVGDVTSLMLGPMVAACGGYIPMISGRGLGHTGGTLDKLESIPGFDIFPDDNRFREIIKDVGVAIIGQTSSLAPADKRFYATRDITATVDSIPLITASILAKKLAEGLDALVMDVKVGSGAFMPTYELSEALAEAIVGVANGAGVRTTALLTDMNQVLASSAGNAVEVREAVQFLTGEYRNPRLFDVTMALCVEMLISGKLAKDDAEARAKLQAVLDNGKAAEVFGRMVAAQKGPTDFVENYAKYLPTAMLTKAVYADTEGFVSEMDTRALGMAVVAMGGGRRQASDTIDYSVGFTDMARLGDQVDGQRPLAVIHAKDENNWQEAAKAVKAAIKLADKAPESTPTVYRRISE
- Experiment Notes: In vitro E. coli thymidine phosphorylase inhibition, spectrophotometric assay at 290 nm
- Format: biochemical
- Measurement Context: compound at 50 µM; 2.5% DMSO; average of three measurements
Measure Name: inhibition at 50 µM (%)
Give the number; % is assumed, so skip it.

Below, 3 molecules whose answers are already recorded.
>>> readout_value("Cc1cccc2cc3c(=O)[nH]c(=O)[nH]c3nc12")
14
>>> readout_value("O=c1[nH]c(=O)c2cc3ccc(Cc4ccccc4)cc3nc2[nH]1")
30
>>> readout_value("O=c1[nH]c(=O)c2cc3ccc(C(F)(F)F)cc3nc2[nH]1")
0

Would you kindly look at the next entry?
Requested field: inhibition at 50 µM. Item: O=C1c2cc3cc4c(cc3nc2C(=O)N1Cc1[nH]c(=O)[nH]c(=O)c1Br)OCO4 [Compound 23b] 30
